# key: entry, value: inhibition
experimentalTarget: 17-beta-hydroxysteroid dehydrogenase type 3 (Homo sapiens) (UniProt P37058)
testDescription: Inhibition of type-3 17 beta-hydroxysteroid dehydrogenase expressed in HEK293 cells at 3 uM 37 degree C pH 7.4
Assay type: cell-based
Respond with the bare value in %.

- molecule: "C[C@]12CC[C@]3(CCC(=O)O3)CC1CC[C@@H]1[C@@H]2CC[C@]2(C)C(=O)CC[C@@H]12 (some centres undefined)"
  assayEndpoint: "inhibition"
  recordedNumber: 93
- molecule: "CO[C@@H]1CC[C@@]2(C)C(CC[C@@H]3[C@@H]2CC[C@]2(C)C(=O)CC[C@@H]32)C1 (some centres undefined)"
  assayEndpoint: "inhibition"
  recordedNumber: 94
- molecule: "C=C[C@@]1(O)CC[C@@]2(C)C(CC[C@@H]3[C@@H]2CC[C@]2(C)C(=O)CC[C@@H]32)C1 (some centres undefined)"
  assayEndpoint: "inhibition"
  recordedNumber: 94

--- query ---
molecule C[C@]12CC[C@@](O)(Cc3ccccc3)CC1CC[C@@H]1[C@@H]2CC[C@]2(C)C(=O)CC[C@@H]12 (some centres undefined) , inhibition observed: 39

----------
experimentalTarget: UniProtKB P37058
testDescription: Inhibition of type-3 17 beta-hydroxysteroid dehydrogenase expressed in HEK293 cells at 37 degree C pH7.4
# key: entry, value: pIC50
Please keep in mind that pIC50 is minus log10 of the molar concentration; only the number is needed.

# example entries with known answers
- compound: "CO[C@]1(CCC2CCCCC2)CC[C@@]2(C)C(CC[C@@H]3[C@@H]2CC[C@]2(C)C(=O)CC[C@@H]32)C1 (stereo partly specified)"
  recordedNumber: 6.45
- compound: "CO[C@]1(Cc2ccccc2)CC[C@@]2(C)C(CC[C@@H]3[C@@H]2CC[C@]2(C)C(=O)CC[C@@H]32)C1 (stereo partly specified)"
  recordedNumber: 6.81
- compound: "CC(C)(C)[C@@]1(O)CC[C@@]2(C)C(CC[C@@H]3[C@@H]2CC[C@]2(C)C(=O)CC[C@@H]32)C1 (stereo partly specified)"
  recordedNumber: 6.85

compound CO[C@]1(CCc2ccccc2)CC[C@@]2(C)C(CC[C@@H]3[C@@H]2CC[C@]2(C)C(=O)CC[C@@H]32)C1 (stereo partly specified) , pIC50 observed: 7.14

compound CCCC[C@@]1(O)CC[C@@]2(C)C(CC[C@@H]3[C@@H]2CC[C@]2(C)C(=O)CC[C@@H]32)C1 (stereo partly specified) , pIC50 observed: 6.94

compound CCO[C@]1(Cc2ccccc2)CC[C@@]2(C)C(CC[C@@H]3[C@@H]2CC[C@]2(C)C(=O)CC[C@@H]32)C1 (stereo partly specified) , pIC50 observed: 6.45

----------
experimentalTarget: 17-beta-hydroxysteroid dehydrogenase type 3 (Homo sapiens) (UniProt P37058)
Sequence (whole entry): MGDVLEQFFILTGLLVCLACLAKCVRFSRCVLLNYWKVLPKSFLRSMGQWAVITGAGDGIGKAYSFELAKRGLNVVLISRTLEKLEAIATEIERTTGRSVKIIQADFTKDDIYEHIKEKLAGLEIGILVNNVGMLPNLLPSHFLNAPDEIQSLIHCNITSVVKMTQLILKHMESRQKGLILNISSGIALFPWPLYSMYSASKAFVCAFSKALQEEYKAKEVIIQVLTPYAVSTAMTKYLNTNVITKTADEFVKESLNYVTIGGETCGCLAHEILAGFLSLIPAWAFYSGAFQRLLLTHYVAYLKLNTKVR
testDescription: Inhibition of type-3 17 beta-hydroxysteroid dehydrogenase expressed in HEK293 cells at 0.3 uM 37 degree C pH 7.4
Format: cell-based
# key: entry, value: inhibition
Respond with the bare value in %.

# example entries with known answers
- compound: "C[C@]12CC[C@](O)(CCCO)CC1CC[C@@H]1[C@@H]2CC[C@]2(C)C(=O)CC[C@@H]12 (some centres undefined)"
  scaleUnit: "%"
  inhibition: 17
- compound: "CO[C@]1(CCC2CCCCC2)CC[C@@]2(C)C(CC[C@@H]3[C@@H]2CC[C@]2(C)C(=O)CC[C@@H]32)C1 (some centres undefined)"
  scaleUnit: "%"
  inhibition: 80
- compound: "C[C@]12CC[C@](O)(CCCc3ccccc3)CC1CC[C@@H]1[C@@H]2CC[C@]2(C)C(=O)CC[C@@H]12 (some centres undefined)"
  scaleUnit: "%"
  inhibition: 93

--- query ---
compound C[C@]12CC[C@@](O)(CCCO)CC1CC[C@@H]1[C@@H]2CC[C@]2(C)C(=O)CC[C@@H]12 (some centres undefined) , inhibition observed: 2
